Data provenance: patent US20080318943A1

# TEST TARGET: GABAA receptor α2β3γ2 (Homo sapiens, UniProt P18507+P47869)
# Construct: expressed in transfected cells; host or cells: Xenopus laevis oocytes injected with cRNA
# Sequence (P47869 29-451): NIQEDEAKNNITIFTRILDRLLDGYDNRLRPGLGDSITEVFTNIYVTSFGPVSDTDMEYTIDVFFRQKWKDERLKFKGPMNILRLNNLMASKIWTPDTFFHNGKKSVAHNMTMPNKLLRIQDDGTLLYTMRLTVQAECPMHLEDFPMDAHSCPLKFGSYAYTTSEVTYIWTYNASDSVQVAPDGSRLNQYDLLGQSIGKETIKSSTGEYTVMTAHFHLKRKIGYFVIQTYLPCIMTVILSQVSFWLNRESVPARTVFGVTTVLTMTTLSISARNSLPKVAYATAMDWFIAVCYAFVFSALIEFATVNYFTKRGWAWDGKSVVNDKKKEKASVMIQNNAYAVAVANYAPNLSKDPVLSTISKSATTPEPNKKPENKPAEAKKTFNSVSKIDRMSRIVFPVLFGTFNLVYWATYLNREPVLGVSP
# Sequence (P28472 26-473 partner): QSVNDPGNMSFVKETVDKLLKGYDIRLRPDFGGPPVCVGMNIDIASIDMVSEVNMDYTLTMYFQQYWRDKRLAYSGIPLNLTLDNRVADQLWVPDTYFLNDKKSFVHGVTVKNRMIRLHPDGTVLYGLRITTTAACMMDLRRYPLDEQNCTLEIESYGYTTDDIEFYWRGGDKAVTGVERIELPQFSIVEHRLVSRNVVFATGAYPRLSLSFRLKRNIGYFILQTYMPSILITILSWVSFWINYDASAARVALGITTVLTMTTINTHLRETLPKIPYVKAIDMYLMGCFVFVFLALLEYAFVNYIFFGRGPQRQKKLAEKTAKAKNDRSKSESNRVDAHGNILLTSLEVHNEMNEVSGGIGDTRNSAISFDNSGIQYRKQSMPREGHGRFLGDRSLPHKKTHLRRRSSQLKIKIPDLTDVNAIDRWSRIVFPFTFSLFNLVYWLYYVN
# Sequence (P18507 40-475): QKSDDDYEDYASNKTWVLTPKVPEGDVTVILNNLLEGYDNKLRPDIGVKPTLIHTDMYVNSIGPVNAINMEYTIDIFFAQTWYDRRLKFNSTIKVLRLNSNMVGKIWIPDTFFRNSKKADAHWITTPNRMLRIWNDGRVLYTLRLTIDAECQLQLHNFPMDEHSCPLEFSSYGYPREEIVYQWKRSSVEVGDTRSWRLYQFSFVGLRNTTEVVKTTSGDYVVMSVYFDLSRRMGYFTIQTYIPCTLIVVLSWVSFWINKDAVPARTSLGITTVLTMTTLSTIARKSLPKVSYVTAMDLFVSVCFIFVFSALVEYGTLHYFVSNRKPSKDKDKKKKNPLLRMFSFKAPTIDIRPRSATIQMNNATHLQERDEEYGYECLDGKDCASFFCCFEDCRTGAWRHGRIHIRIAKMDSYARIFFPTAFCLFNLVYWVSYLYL
# ASSAY EXPLANATION: Two-electrode voltage-clamp potentiation of GABA EC10 current in Xenopus oocytes, GABAA2
# Format: cell-based
# CONDITION PARAMETERS: percentage potentiation of GABA EC10 current divided by that of diazepam
# label = Fulfilled if Relative Potentiation for GABAA2 >= 0.3 else Not fulfilled

Some solved cases for reference:
{"COMPOUND": "Nc1c2c(nc3c(-c4cccnc4F)cccc13)CN(C1CCC1)C2=O", "CLASS LABEL": "Not fulfilled"}
{"COMPOUND": "CCCN1Cc2nc3c(-c4ccccc4C#N)cccc3c(N)c2C1=O", "CLASS LABEL": "Not fulfilled"}
{"COMPOUND": "COc1ncc(-c2cccc3c(N)c4c(nc23)CN(Cc2ccc(OC)c(OC)c2)C4=O)c(OC)n1", "CLASS LABEL": "Fulfilled"}
{"COMPOUND": "CCCN1Cc2nc3c(-c4cc(C)nn4C)cccc3c(N)c2C1=O", "CLASS LABEL": "Fulfilled"}
{"COMPOUND": "CCCN1Cc2nc3c(-c4cccnc4C)cccc3c(N)c2C1=O", "CLASS LABEL": "Not fulfilled"}
{"COMPOUND": "N#Cc1ccc(-c2cccc3c(N)c4c(nc23)CN(C2CCC2)C4=O)cn1", "CLASS LABEL": "Not fulfilled"}

q: API: above_or_equal(metric=Relative Potentiation for GABAA2, cutoff=0.3) for item COc1cccc(F)c1-c1c(F)ccc2c(N)c3c(nc12)CN(C1CC1)C3=O [Example 35]
a: Not fulfilled

q: API: above_or_equal(metric=Relative Potentiation for GABAA2, cutoff=0.3) for item COc1cccc(F)c1-c1cccc2c(N)c3c(nc12)CN(C1CC1)C3=O (atropisomer, axis not shown; (P))
a: Fulfilled

q: API: above_or_equal(metric=Relative Potentiation for GABAA2, cutoff=0.3) for item CCN1Cc2nc3c(-c4ccc(F)c(OC)c4)cccc3c(N)c2C1=O
a: Not fulfilled

q: API: above_or_equal(metric=Relative Potentiation for GABAA2, cutoff=0.3) for item COc1cccc(-c2c(F)ccc3c(N)c4c(nc23)CN(C2CC2)C4=O)c1F
a: Not fulfilled

----------
# TEST TARGET: GABAA receptor α2β3γ2 (Homo sapiens, UniProt P18507+P47869)
# Construct: expressed in transfected cells; host or cells: Xenopus laevis oocytes injected with cRNA
# ASSAY EXPLANATION: Two-electrode voltage-clamp potentiation of GABA EC10 current in Xenopus oocytes, GABAA2
# Assay type: cell-based
# CONDITION PARAMETERS: percentage potentiation of GABA EC10 current divided by that of diazepam
# Procedure: GABAA receptors were heterologously expressed in Xenopus oocytes by injecting cRNA corresponding to human α1, α2, α3, α5, β2, P3 and γ2 subunits of the GABAA receptor genes. […] Modulatory effect of test compound is determined and compared across subtypes. […] All measurements were done in a medium containing ND-96 (96 NaCl, 2 KCl, 1.8 CaCl2.2H2O, 1 MgCl2.6H2O, 5 HEPES, in mM, pH 7.5). […] The concentration of GABA corresponded to the EC10 value calculated for each oocyte. […]
Reported Relative Potentiation for GABAA2 values follow for various molecules
Keep the answer to the number alone.

q: Relative Potentiation for GABAA2 lookup needed for N#Cc1cncc(-c2cccc3c(N)c4c(nc23)CN(C2CCC2)C4=O)c1 , thanks.
a: 0.21

q: Relative Potentiation for GABAA2 lookup needed for N#Cc1ccccc1-c1cccc2c(N)c3c(nc12)CN(C1CC1)C3=O , thanks.
a: 0.087

q: Relative Potentiation for GABAA2 lookup needed for COc1cccc(-c2cccc3c(N)c4c(nc23)CN(C2CCC2)C4=O)c1F , thanks.
a: 0.26

q: Relative Potentiation for GABAA2 lookup needed for CCCN1Cc2nc3c(-c4cc(C)cnc4OC)cccc3c(N)c2C1=O , thanks.
a: 0

q: Relative Potentiation for GABAA2 lookup needed for COc1ncccc1-c1cccc2c(N)c3c(nc12)CN([C@H]1C[C@@H](C)C1)C3=O , thanks.
a: 0.51

----------
# TEST TARGET: GABAA receptor α1β2γ2 (Homo sapiens, UniProt P14867+P18507)
# Construct: expressed in transfected cells; host or cells: Xenopus laevis oocytes injected with cRNA
# Sequence (P14867 28-456): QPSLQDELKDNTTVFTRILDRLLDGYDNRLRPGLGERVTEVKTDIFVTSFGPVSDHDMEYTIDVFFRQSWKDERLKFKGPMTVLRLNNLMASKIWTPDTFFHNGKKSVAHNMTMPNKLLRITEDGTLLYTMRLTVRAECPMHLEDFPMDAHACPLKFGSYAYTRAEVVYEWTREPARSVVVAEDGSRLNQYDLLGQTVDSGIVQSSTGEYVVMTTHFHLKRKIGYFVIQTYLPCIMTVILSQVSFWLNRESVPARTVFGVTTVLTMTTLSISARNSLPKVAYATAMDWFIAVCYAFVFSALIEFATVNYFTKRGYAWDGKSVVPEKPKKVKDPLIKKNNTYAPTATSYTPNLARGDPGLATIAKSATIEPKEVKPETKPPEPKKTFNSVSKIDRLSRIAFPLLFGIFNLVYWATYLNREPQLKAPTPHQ
# Sequence (P47870 25-512 partner limits assumed): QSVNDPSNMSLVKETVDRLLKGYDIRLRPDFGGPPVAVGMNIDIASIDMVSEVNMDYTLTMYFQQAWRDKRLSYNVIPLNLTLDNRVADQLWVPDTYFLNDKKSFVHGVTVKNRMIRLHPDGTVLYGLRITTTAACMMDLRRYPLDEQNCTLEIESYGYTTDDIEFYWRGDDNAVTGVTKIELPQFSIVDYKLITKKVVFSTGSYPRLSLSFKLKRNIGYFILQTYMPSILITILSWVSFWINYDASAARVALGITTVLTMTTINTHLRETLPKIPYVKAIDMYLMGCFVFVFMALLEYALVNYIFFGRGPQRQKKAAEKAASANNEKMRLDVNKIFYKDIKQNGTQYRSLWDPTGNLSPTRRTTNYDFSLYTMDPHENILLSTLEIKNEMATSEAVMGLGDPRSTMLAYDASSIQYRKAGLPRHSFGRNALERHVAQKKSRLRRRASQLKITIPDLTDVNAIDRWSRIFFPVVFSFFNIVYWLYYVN
# Sequence (P18507 40-475): as the sequence (P18507 40-475) above
# ASSAY EXPLANATION: Two-electrode voltage-clamp potentiation of GABA EC10 current in Xenopus oocytes, GABAA1
# Assay type: cell-based
# CONDITION PARAMETERS: percentage potentiation of GABA EC10 current divided by that of diazepam
# label = fulfilled if Relative Potentiation for GABAA1 >= 0.3 else not fulfilled

Some solved cases for reference:
{"SUBSTANCE SMILES": "COc1ccc(-c2c(F)ccc3c(N)c4c(nc23)CN(C2CCC2)C4=O)cn1", "CLASS LABEL": "not fulfilled"}
{"SUBSTANCE SMILES": "CCCN1Cc2nc3c(-c4cc(Br)cnc4OC)cccc3c(N)c2C1=O", "CLASS LABEL": "fulfilled"}

q: API: above_or_equal(metric=Relative Potentiation for GABAA1, cutoff=0.3) for item Nc1c2c(nc3c(-c4ncccc4F)cccc13)CN(C1CCC1)C2=O
a: not fulfilled

q: API: above_or_equal(metric=Relative Potentiation for GABAA1, cutoff=0.3) for item CCCN1Cc2nc3c(-c4ccc(OC)nc4C)cccc3c(N)c2C1=O
a: not fulfilled

q: API: above_or_equal(metric=Relative Potentiation for GABAA1, cutoff=0.3) for item COc1cccc(-c2cccc3c(N)c4c(nc23)CN(C)C4=O)c1F
a: not fulfilled

q: API: above_or_equal(metric=Relative Potentiation for GABAA1, cutoff=0.3) for item CCCN1Cc2nc3c(-c4cc(Cl)ccc4Cl)cccc3c(N)c2C1=O
a: fulfilled

----------
# TEST TARGET: GABAA2 receptors (α2, β3, γ2 receptor subunits transfected into Sf9 cells) (Homo sapiens, UniProt P18507+P47869)
# Sequence (P47869 29-451): as the sequence (P47869 29-451) above
# Sequence (P28472 26-473 partner): as the sequence (P28472 26-473 partner) above
# Sequence (P18507 40-475): as the sequence (P18507 40-475) above
# ASSAY EXPLANATION: GABAA2 Binding Method ([3H]-Flunitrazepam displacement)
# CONDITION PARAMETERS: [3H]-Flunitrazepam ~2 nM, α2β3γ2 Sf9 membranes, 1 hr at 4° C.
OBSERVABLE: pKi
In textbook form, pKi equals minus log to base ten of the concentration in mol/L.

Worked cases, answers included:
{"SUBSTANCE SMILES": "CCCN1Cc2nc3c(-c4cc(F)ccc4OC)cccc3c(N)c2C1=O", "NUMBER": 7.10}
{"SUBSTANCE SMILES": "COc1ccc(-c2c(F)ccc3c(N)c4c(nc23)CN(C2CCC2)C4=O)cn1", "NUMBER": 8.58}
{"SUBSTANCE SMILES": "COc1ccc([C@@H](C)N2Cc3nc4c(-c5c(F)cccc5OC)cccc4c(N)c3C2=O)cc1", "NUMBER": 7.68}

Kindly review the next compound as well.
q: pKi lookup needed for CCCN1Cc2nc3c(-c4cccc(C#N)c4)cccc3c(N)c2C1=O , thanks.
a: 7.67

----------
# TEST TARGET: GABAA receptor α1β2γ2 (Homo sapiens, UniProt P14867+P18507)
# Construct: expressed in transfected cells; host or cells: Xenopus laevis oocytes injected with cRNA
# ASSAY EXPLANATION: Two-electrode voltage-clamp potentiation of GABA EC10 current in Xenopus oocytes, GABAA1
# Assay type: cell-based
# CONDITION PARAMETERS: percentage potentiation of GABA EC10 current divided by that of diazepam
# Procedure: GABAA receptors were heterologously expressed in Xenopus oocytes by injecting cRNA corresponding to human α1, α2, α3, α5, β2, P3 and γ2 subunits of the GABAA receptor genes. […] Modulatory effect of test compound is determined and compared across subtypes. […] All measurements were done in a medium containing ND-96 (96 NaCl, 2 KCl, 1.8 CaCl2.2H2O, 1 MgCl2.6H2O, 5 HEPES, in mM, pH 7.5). […] The concentration of GABA corresponded to the EC10 value calculated for each oocyte. […]
OBSERVABLE: Relative Potentiation for GABAA1
Keep the answer to the number alone.

Worked cases, answers included:
{"SUBSTANCE SMILES": "CCCN1Cc2nc3c(-c4cnc(OC)c(C)c4)cccc3c(N)c2C1=O", "Relative Potentiation for GABAA1": 0.32}
{"SUBSTANCE SMILES": "CCCN1Cc2nc3c(-c4ccsc4)cccc3c(N)c2C1=O", "Relative Potentiation for GABAA1": 0.19}
{"SUBSTANCE SMILES": "COc1cccc(-c2c(F)ccc3c(N)c4c(nc23)CN(C2CC2)C4=O)c1F", "Relative Potentiation for GABAA1": 0.032}

q: Relative Potentiation for GABAA1 lookup needed for COc1cccc(F)c1-c1cccc2c(N)c3c(nc12)CN(C1CCCC1)C3=O , thanks.
a: −0.01

q: Relative Potentiation for GABAA1 lookup needed for COc1cccc(-c2cccc3c(N)c4c(nc23)CN(C2CC2)C4=O)c1F , thanks.
a: 0.07

q: Relative Potentiation for GABAA1 lookup needed for COc1cccc(F)c1-c1c(F)ccc2c(N)c3c(nc12)CN(C)C3=O , thanks.
a: −0.02

q: Relative Potentiation for GABAA1 lookup needed for COc1ccc(-c2cccc3c(N)c4c(nc23)CN(C2CCC2)C4=O)cn1 , thanks.
a: −0.035

q: Relative Potentiation for GABAA1 lookup needed for CCCN1Cc2nc3c(-c4cc(Cl)ccc4OC)cccc3c(N)c2C1=O , thanks.
a: 0.36

q: Relative Potentiation for GABAA1 lookup needed for COc1ccc(CN2Cc3nc4c(-c5ccc(Cl)nc5)cccc4c(N)c3C2=O)cc1OC , thanks.
a: 0.013

q: Relative Potentiation for GABAA1 lookup needed for N#Cc1cc(F)ccc1-c1cccc2c(N)c3c(nc12)CN(C1CCC1)C3=O , thanks.
a: −0.024
